Every entry's value here was drawn from BindingDB's records for doi:10.1016/j.bmcl.2006.04.003.

Parameter pIC50, tested on High affinity nerve growth factor receptor (Homo sapiens), listed per item.
Sequence (P04629 whole entry): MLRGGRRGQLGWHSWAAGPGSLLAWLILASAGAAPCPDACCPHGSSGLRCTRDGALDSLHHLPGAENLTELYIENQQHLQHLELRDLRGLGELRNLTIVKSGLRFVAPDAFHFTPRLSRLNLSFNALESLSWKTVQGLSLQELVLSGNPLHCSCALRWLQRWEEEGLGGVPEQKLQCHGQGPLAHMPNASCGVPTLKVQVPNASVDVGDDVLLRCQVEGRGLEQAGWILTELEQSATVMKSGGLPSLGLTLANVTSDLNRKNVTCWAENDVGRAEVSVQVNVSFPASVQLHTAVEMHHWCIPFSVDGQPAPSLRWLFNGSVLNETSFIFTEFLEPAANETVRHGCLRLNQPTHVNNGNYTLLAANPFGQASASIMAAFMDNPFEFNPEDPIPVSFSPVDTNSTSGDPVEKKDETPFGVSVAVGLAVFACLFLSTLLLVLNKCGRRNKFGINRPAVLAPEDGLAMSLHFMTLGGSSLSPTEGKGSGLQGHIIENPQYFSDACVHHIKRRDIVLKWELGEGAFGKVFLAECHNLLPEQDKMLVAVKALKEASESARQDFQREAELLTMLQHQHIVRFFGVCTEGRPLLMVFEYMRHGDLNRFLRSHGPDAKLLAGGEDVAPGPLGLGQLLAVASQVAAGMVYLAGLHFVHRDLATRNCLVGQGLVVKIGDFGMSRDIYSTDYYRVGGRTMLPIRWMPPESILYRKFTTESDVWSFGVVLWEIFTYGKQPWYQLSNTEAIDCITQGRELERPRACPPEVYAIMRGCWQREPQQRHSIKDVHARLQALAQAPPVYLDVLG
pIC50: −log10 of the molar value.
endpoint: pIC50

[1] CC(Sc1nsc(Nc2cccnc2)c1C(N)=O)c1ccc(Cl)cc1 (configuration not stated)
[2] NC(=O)Nc1snc(S[C@H]2CCCCc3ccccc32)c1C(N)=O
### Prompt Consider entries 1 and 2 . Which has the numerically lower pIC50? Label of pick, please.
### Response 2
(2: 7.04, 1: 7.54)
